Test system: MILI (PIWIL2) piRISC loaded with piRNA #1 (26 nt);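 also: 1 nM active piRISC with 0.1 nM target library at 33 °C single turnover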
Procedure Details: pre-steady-state target cleavage rate (min^-1); guide: piRNA #1 5'p-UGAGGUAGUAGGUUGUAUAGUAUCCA; higher = faster piRNA-guided slicing of the target
Experimental Context: auxiliary factor: 500 nM mouse GTSF1
The threshold is inclusive: pre-steady-state target cleavage rate of exactly 0.01 counts as Condition met; values below receive Condition not met.

The following sequences have reported results that may help.
Inquiry: Reported pre-steady-state target cleavage rate at or above 0.01? GGAGACCUAUCUAUACAACCGACUACCUCA
Reply text: Condition not met

Inquiry: Reported pre-steady-state target cleavage rate at or above 0.01? GGAGUGGUUACUAAACAACCUACUACCUCA
Reply text: Condition met

Inquiry: Reported pre-steady-state target cleavage rate at or above 0.01? GGAGACCUAUGAUGACAACCUACUACCUCA
Reply text: Condition not met

Inquiry: Reported pre-steady-state target cleavage rate at or above 0.01? GGAGAGGAUAGUAUAGAACCUACUACCUCA
Reply text: Condition met

Inquiry: Reported pre-steady-state target cleavage rate at or above 0.01? GGAGACCUAUGAUAUGUUCCUACUACCUCG [g2:g12:cont:t1G]
Reply text: Condition not met

Inquiry: Reported pre-steady-state target cleavage rate at or above 0.01? GGAGUGCAUACUAUACAACCUACUACCACA
Reply text: Condition met

Inquiry: Reported pre-steady-state target cleavage rate at or above 0.01? GGAGAGGUAACUAUACAACCUACUACCUCA
Reply text: Condition met

Inquiry: Reported pre-steady-state target cleavage rate at or above 0.01? GGAGACCUAACUUAUCAACCUACUACCUCA
Reply text: Condition met

More entries:
Inquiry: Reported pre-steady-state target cleavage rate at or above 0.01? GGAGAGGAUACUAUACUAGCUACUACCUCA
Reply text: Condition met

Inquiry: Reported pre-steady-state target cleavage rate at or above 0.01? GGAGACCUUACAAUACAACCUACUACGUCA
Reply text: Condition met

Inquiry: Reported pre-steady-state target cleavage rate at or above 0.01? GGAGACCUAACUAUACAUCCUACUUCCUCA
Reply text: Condition met

Inquiry: Reported pre-steady-state target cleavage rate at or above 0.01? GGAGACCUAUGAUAUGUUCCUACUACGUGA
Reply text: Condition not met

Inquiry: Reported pre-steady-state target cleavage rate at or above 0.01? GGAGAGGAUACUAUACUACCUACUACCUCA
Reply text: Condition met

###

System: MILI (PIWIL2) piRISC loaded with L1MC piRNA (26 nt);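 also: 1 nM active piRISC with 0.1 nM target library at 33 °C single turnover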
Procedure Details: pre-steady-state target cleavage rate (min^-1); guide: L1MC piRNA 5'p-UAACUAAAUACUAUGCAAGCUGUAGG; MIWI and MILI are mouse PIWI proteins and EfPiwi is from a freshwater sponge; tags in brackets are library labels; higher = faster piRNA-guided slicing of the target
Experimental Context: auxiliary factor: none (no GTSF1)
The threshold is inclusive: pre-steady-state target cleavage rate of exactly 0.006 counts as Satisfied; values below receive Not satisfied.

The following sequences have reported results that may help.
Inquiry: Reported pre-steady-state target cleavage rate at or above 0.006? UCCUGGAUGUCGAACGUAUCUAUUCUAGUUA
Reply text: Not satisfied

Inquiry: Reported pre-steady-state target cleavage rate at or above 0.006? UCCUGGAUGUCGAACCAUCAGUAUUUAGUUA
Reply text: Not satisfied

Inquiry: Reported pre-steady-state target cleavage rate at or above 0.006? UCCUGGAUGUGCUUGCAAAGUAAUUAGUUA
Reply text: Not satisfied

More entries:
Inquiry: Reported pre-steady-state target cleavage rate at or above 0.006? UCCUGGAUGUGCUUGCAUUGUAUAUAGUUA
Reply text: Not satisfied

Inquiry: Reported pre-steady-state target cleavage rate at or above 0.006? UCCUGGUACAGCUAGCAUAGUAUUUAGUUA
Reply text: Satisfied

Inquiry: Reported pre-steady-state target cleavage rate at or above 0.006? UCCUCCUACUGCUUGCAUUGUAUUUAGUUA
Reply text: Satisfied

Inquiry: Reported pre-steady-state target cleavage rate at or above 0.006? UCCUGGAUCAGCUAGCAUAGUUUUUAGUUA
Reply text: Not satisfied

Inquiry: Reported pre-steady-state target cleavage rate at or above 0.006? UCCUGGAUCAGCUUGCAUAGAAUUUAGUUA
Reply text: Not satisfied

Inquiry: Reported pre-steady-state target cleavage rate at or above 0.006? UCCUGCUACAGCUGUGCAUAGUAUUUAGUUA
Reply text: Satisfied

Inquiry: Reported pre-steady-state target cleavage rate at or above 0.006? UCCUGGAUGUGCUUGGAUAGUAUAUAGUUA
Reply text: Not satisfied

Inquiry: Reported pre-steady-state target cleavage rate at or above 0.006? UCCUGCUACAGCUUGCAUAGAUAUUUAGUUA
Reply text: Not satisfied
